# SYSTEM: RSV F protein of subtype B (18537) on recombinant mKate-RSV virus (Respiratory syncytial virus subtype B …, UniProt P13843 26-574)
# MEASUREMENT DESCRIPTION: cell-based or functional assay
VALUE KIND: Neut IC50 (µg/ml) subtype B (µg/mL)
Numeric answer only, unit µg/mL assumed.

>>> quantitative_readout("ADI-18939 (antibody, V domains shown, full-length IgG from yeast; also called Antibody Number 292; Ab # 292) VH: QVQLQQWGAGLLKPSETLSLTCAVYGGSFSGYSWSWIRQSPGKGLEWIGEINHRGSTNYNPSLKSRVTISVDTSKNQFSLKLSSVTAADTAVYYCAGTNYGEVNTSNQYFFGMDVWGQGTTVTVSS VL: DIRLTQSPSSLSASVGDRVTITCRASQSITTYLNWYQQKPGKAPKLLIYAASNLESGVPSSFSGSGFGTDFTLTISSLQPDDFATYYCQQSYSAPLTFGGGTKVDIK")
0.038

Reported Neut IC50 (µg/ml) subtype B for ADI-18901 (antibody, V domains shown) VH: EVQLVESGAEVKRPGASVKISCKASEYAFTAHYLHWVRQAPDQGLEWMGWISPKSGGTNYAQKFHGRVSMTSDTSISTVYMELSSLTSDDTAVYYCARSSLVGASPNFDFWGQGTLVTVSS VL: QSVLTQPPSVSAAPGQRVTISCSGSSSNIGNNYVSWYQQLPGTTPKVLIYDNNQRPSGIPDRFSGSKSGTSATLAISGLQTGDEAVYYCGTWDASLSAAMVFGGGTKLTVL : what is it?
5.76

The reported measurements were obtained from patent US20200223906A1.
